Item-by-item account of melting point

Use these answered entries as a reference point.
| compound | observable | meas_value |
| --- | --- | --- |
| CCCCCCC(CCCC)COC(=O)c1ccc(NC2=NC3=NC(Nc4ccc(C(=O)OCC(CCCC)CCCCCC)cc4)=NC4=NC(Nc5ccc(C(=O)OCC(CCCC)CCCCCC)cc5)=NC(=N2)N34)cc1 (stereo not drawn) | melting point | 215 to 222 °C |
| O=C(c1ccccc1)c1ccc(NC2=NC3=NC(Nc4ccc(C(=O)c5ccccc5)cc4)=NC4=NC(Nc5ccc(C(=O)c6ccccc6)cc5)=NC(=N2)N34)cc1 | melting point | > 270 °C |
| CCCCC(CC)COC(=O)/C=C/c1cccc(NC2=NC3=NC(Nc4cccc(/C=C/C(=O)OCC(CC)CCCC)c4)=NC4=NC(Nc5cccc(/C=C/C(=O)OCC(CC)CCCC)c5)=NC(=N2)N34)c1 (stereo not drawn) | melting point | 206 to 210 °C |
| CCCCC(CC)COC(=O)c1ccc(NC2=NC3=NC(Nc4ccc(C(=O)OCC(CC)CCCC)cc4)=NC4=NC(Nc5ccc(C(=O)OCC(CC)CCCC)cc5)=NC(=N2)N34)cc1 (stereo not drawn) | melting point | 183 to 186 °C |
| CCCCC(CC)COC(=O)/C=C/c1ccc(NC2=NC3=NC(Nc4ccc(/C=C/C(=O)OCC(CC)CCCC)cc4)=NC4=NC(Nc5ccc(/C=C/C(=O)OCC(CC)CCCC)cc5)=NC(=N2)N34)cc1 (stereo not drawn) | melting point | 213 to 216 °C |

Item under review: COc1cccc(NC2=NC3=NC(Nc4cccc(OC)c4)=NC4=NC(Nc5cccc(OC)c5)=NC(=N2)N34)c1 . Reported melting point?
> 275 °C

* * *

Test: UV absorption (UV λmax and εmax) in solution
Type: physicochemical
Settings: DMSO
Item-by-item account of UV λmax

| compound | meas_value |
| --- | --- |
| COC(=O)c1ccc(NC2=NC3=NC(Nc4ccc(C(=O)OC)cc4)=NC4=NC(Nc5ccc(C(=O)OC)cc5)=NC(=N2)N34)cc1 | 329 nm |
| CCCCOC(=O)c1ccc(NC2=NC3=NC(Nc4ccc(C(=O)OCCCC)cc4)=NC4=NC(c5cn(C)c6ccccc56)=NC(=N2)N34)cc1 | 337 nm |
| COc1ccc(NC2=NC3=NC(Nc4ccc(OC)cc4)=NC4=NC(Nc5ccc(OC)cc5)=NC(=N2)N34)cc1 | 324 nm |
| CC12CCC(C1)C(C)(C)C2OC(=O)c1ccc(NC2=NC3=NC(Nc4ccc(C(=O)OC5C6(C)CCC(C6)C5(C)C)cc4)=NC4=NC(Nc5ccc(C(=O)OC6C7(C)CCC(C7)C6(C)C)cc5)=NC(=N2)N34)cc1 (centres unmarked) | 330 nm |

Item under review: c1cnn(-c2ccc(NC3=NC4=NC(Nc5ccc(-n6cccn6)cc5)=NC5=NC(Nc6ccc(-n7cccn7)cc6)=NC(=N3)N45)cc2)c1 . Reported UV λmax?
330 nm

Item under review: COC(=O)c1ccc(-c2ccc(NC3=NC4=NC(Nc5ccc(-c6ccc(C(=O)OC)cc6)cc5)=NC5=NC(Nc6ccc(-c7ccc(C(=O)OC)cc7)cc6)=NC(=N3)N45)cc2)cc1 . Reported UV λmax?
346 nm

Item under review: CCOC(=O)/C=C/c1ccc(NC2=NC3=NC(Nc4ccc(/C=C/C(=O)OCC)cc4)=NC4=NC(Nc5ccc(/C=C/C(=O)OCC)cc5)=NC(=N2)N34)cc1 . Reported UV λmax?
359 nm

* * *

Experiment: UV absorption (UV λmax and εmax) in solution
Format: physicochemical
Details: DMSO
Item-by-item account of εmax
Write down the numeric answer in M⁻¹ cm⁻¹ and omit the unit.

| compound | εmax, M⁻¹ cm⁻¹ |
| --- | --- |
| c1cnn(-c2ccc(NC3=NC4=NC(Nc5ccc(-n6cccn6)cc5)=NC5=NC(Nc6ccc(-n7cccn7)cc6)=NC(=N3)N45)cc2)c1 | 99000 |
| c1ccn2cc(-c3ccc(NC4=NC5=NC(Nc6ccc(-c7cn8ccccc8n7)cc6)=NC6=NC(Nc7ccc(-c8cn9ccccc9n8)cc7)=NC(=N4)N56)cc3)nc2c1 | 75000 |
| CC1CC(OC(=O)c2ccc(NC3=NC4=NC(Nc5ccc(C(=O)OC6CC(C)CC(C)(C)C6)cc5)=NC5=NC(Nc6ccc(C(=O)OC7CC(C)CC(C)(C)C7)cc6)=NC(=N3)N45)cc2)CC(C)(C)C1 (centres unmarked) | 143000 |

Item under review: CC(C)[C@@H]1CC[C@@H](C)C[C@H]1OC(=O)c1ccc(NC2=NC3=NC(Nc4ccc(C(=O)O[C@@H]5C[C@H](C)CC[C@H]5C(C)C)cc4)=NC4=NC(Nc5ccc(C(=O)O[C@@H]6C[C@H](C)CC[C@H]6C(C)C)cc5)=NC(=N2)N34)cc1 . Reported εmax?
118000

Item under review: c1ccc(-c2ccc(NC3=NC4=NC(Nc5ccc(-c6ccccc6)cc5)=NC5=NC(Nc6ccc(-c7ccccc7)cc6)=NC(=N3)N45)cc2)cc1 . Reported εmax?
103000

* * *

Experiment: UV absorption (UV λmax and εmax) in solution
Format: physicochemical
Conditions: DMSO
observable: UV λmax
Returns: string containing the numeric result and its unit.

| compound | UV λmax |
| --- | --- |
| CCCCCCCCCCCCCCCCOC(=O)c1ccc(NC2=NC3=NC(Nc4ccc(C(=O)OCCCCCCCCCCCCCCCC)cc4)=NC4=NC(Nc5ccc(C(=O)OCCCCCCCCCCCCCCCC)cc5)=NC(=N2)N34)cc1 [Example 42] | 324 nm |

Item under review: c1ccc(-c2ccc(OC3=NC4=NC(Oc5ccc(-c6ccccc6)cc5)=NC5=NC(Oc6ccc(-c7ccccc7)cc6)=NC(=N3)N45)cc2)cc1 [Example 19] . Reported UV λmax?
262 nm

Item under review: O=[N+]([O-])c1cccc(NC2=NC3=NC(Nc4cccc([N+](=O)[O-])c4)=NC4=NC(Nc5cccc([N+](=O)[O-])c5)=NC(=N2)N34)c1 [Example 35] . Reported UV λmax?
308 nm

Item under review: c1ccc(Nc2ccc(NC3=NC4=NC(Nc5ccc(Nc6ccccc6)cc5)=NC5=NC(Nc6ccc(Nc7ccccc7)cc6)=NC(=N3)N45)cc2)cc1 [Example 27] . Reported UV λmax?
360 nm

Item under review: CC(C)[C@@H]1CC[C@@H](C)C[C@H]1OC(=O)c1ccc(NC2=NC3=NC(Nc4ccc(C(=O)O[C@@H]5C[C@H](C)CC[C@H]5C(C)C)cc4)=NC4=NC(Nc5ccc(C(=O)O[C@@H]6C[C@H](C)CC[C@H]6C(C)C)cc5)=NC(=N2)N34)cc1 [Example 30] . Reported UV λmax?
326 nm

* * *

Assay: UV absorption (UV λmax and εmax) in solution
Type: physicochemical
Conditions: DMSO
Measured εmax determines class: band A = under 60000 M⁻¹ cm⁻¹, band B = from 60000 M⁻¹ cm⁻¹ up to 100000 M⁻¹ cm⁻¹, band C = 100000 M⁻¹ cm⁻¹ and over

Check out these entries, answers already filled in.
| compound | label_value |
| --- | --- |
| CCCCOC(=O)c1ccc(NC2=NC3=NC(Nc4ccc(C(=O)OCCCC)cc4)=NC4=NC(c5cn(C)c6ccccc56)=NC(=N2)N34)cc1 | band B |
| C(=C\c1cccc(NC2=NC3=NC(Nc4cccc(/C=C/c5ccccc5)c4)=NC4=NC(Nc5cccc(/C=C/c6ccccc6)c5)=NC(=N2)N34)c1)/c1ccccc1 | band C |
| CCCCCCCCCCCCOC(=O)c1ccc(NC2=NC3=NC(Nc4ccc(C(=O)OCCCCCCCCCCCC)cc4)=NC4=NC(Nc5ccc(C(=O)OCCCCCCCCCCCC)cc5)=NC(=N2)N34)cc1 | band B |
| Cc1cc(N)c(NC2=NC3=NC(Nc4cc(C)c(C)cc4N)=NC4=NC(Nc5cc(C)c(C)cc5N)=NC(=N2)N34)cc1C | band A |
| CCCCC(CC)COC(=O)/C=C/c1cccc(NC2=NC3=NC(Nc4cccc(/C=C/C(=O)OCC(CC)CCCC)c4)=NC4=NC(Nc5cccc(/C=C/C(=O)OCC(CC)CCCC)c5)=NC(=N2)N34)c1 (stereo not drawn) | band C |

Lab log: c1cc2cc(NC3=NC4=NC(Nc5ccc6[nH]ccc6c5)=NC5=NC(Nc6ccc7[nH]ccc7c6)=NC(=N3)N45)ccc2[nH]1 — assign εmax category
band A

Lab log: CCCCC(CC)CNC1=NC2=NC(NCC(CC)CCCC)=NC3=NC(NCC(CC)CCCC)=NC(=N1)N23 (stereo not drawn) — assign εmax category
band B

Lab log: CCCCCCCCCCCCCCCCOC(=O)c1ccc(NC2=NC3=NC(Nc4ccc(C(=O)OCCCCCCCCCCCCCCCC)cc4)=NC4=NC(Nc5ccc(C(=O)OCCCCCCCCCCCCCCCC)cc5)=NC(=N2)N34)cc1 — assign εmax category
band C

Lab log: Cc1ccc(C2=NC3=NC(c4ccc(C)cc4)=NC4=NC(c5ccc(C)cc5)=NC(=N2)N34)cc1 — assign εmax category
band B
